# ASSAY_METHOD_TEXT: Hematology assays in cynomolgus monkeys (Example 46)
# Type: in vivo
# STATED_CONDITIONS: Day-5
Strand notation (5' to 3'): a small letter for the sugar, then the base; units joined by * are phosphorothioate-linked, units joined directly phosphodiester-linked; [ ] holds rarer units or linkages, { } end groups; capitals alone tell only the bases. e = 2'-O-(2-methoxyethyl) (MOE); [5mC] = 5-methylcytosine; d = 2'-deoxy (DNA)
MEASUREMENT_LABEL: RBC count
Express the reported value numerically, then name its unit.

# input Returns the measured RBC count for the input substance. Input: ISIS 416858: MOE gapmer, nucleobases 1275 to 1318 of SEQ ID NO: 1 (Table 8) (antisense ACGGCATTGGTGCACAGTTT; MOE gapmer, wing and gap sizes not given here)
# output 5.5e+06 µL⁻¹

# input Next up: ISIS 445522: 5-8-5 or 6-8-6 MOE microwalk gapmer (Table 44) (antisense eG*e[5mC]*eA*e[5mC]*eA*dG*dT*dT*dT*d[5mC]*dT*dG*dG*e[5mC]*eA*eG*eG*e[5mC])
# output 5.6e+06 µL⁻¹

# input Also ISIS 449710: 3-8-3, 4-8-4, 2-10-2, 3-10-3 or 4-10-4 MOE microwalk gapmer (Table 46) (antisense e[5mC]*eA*e[5mC]*dA*dG*dT*dT*dT*d[5mC]*dT*dG*dG*d[5mC]*eA*eG*eG) ?
# output 5.8e+06 µL⁻¹

# input Then ISIS 449707: 3-8-3, 4-8-4, 2-10-2, 3-10-3 or 4-10-4 MOE microwalk gapmer (Table 46) (antisense e[5mC]*eA*e[5mC]*eA*dG*dT*dT*dT*d[5mC]*dT*dG*dG*e[5mC]*eA*eG*eG) ?
# output 5.8e+06 µL⁻¹

# input Note, next up: ISIS 449709: 3-8-3, 4-8-4, 2-10-2, 3-10-3 or 4-10-4 MOE microwalk gapmer (Table 46) (antisense eG*e[5mC]*eA*e[5mC]*dA*dG*dT*dT*dT*d[5mC]*dT*dG*dG*d[5mC]*eA*eG*eG*e[5mC])
# output 5.8e+06 µL⁻¹

---
# input Which RBC count value belongs to ISIS 445531: 5-8-5 or 6-8-6 MOE microwalk gapmer (Table 44) (antisense eG*eG*e[5mC]*eA*eT*dT*dG*dG*dT*dG*d[5mC]*dA*d[5mC]*eA*eG*eT*eT*eT) ?
# output 5.7e+06 µL⁻¹

# input Next record, please: ISIS 449711: 3-8-3, 4-8-4, 2-10-2, 3-10-3 or 4-10-4 MOE microwalk gapmer (Table 46) (antisense eA*e[5mC]*dA*dG*dT*dT*dT*d[5mC]*dT*dG*dG*d[5mC]*eA*eG)
# output 5.7e+06 µL⁻¹

# input Check ISIS 449708: 3-8-3, 4-8-4, 2-10-2, 3-10-3 or 4-10-4 MOE microwalk gapmer (Table 46) (antisense eA*e[5mC]*eA*dG*dT*dT*dT*d[5mC]*dT*dG*dG*e[5mC]*eA*eG) too.
# output 5.9e+06 µL⁻¹

# input Queued: ISIS 416850: MOE gapmer, nucleobases 1275 to 1318 of SEQ ID NO: 1 (Table 8) (antisense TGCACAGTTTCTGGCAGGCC; MOE gapmer, wing and gap sizes not given here)
# output 5.7e+06 µL⁻¹

The reported numbers originate from patent US20230263822A1.
